Values from paper PMC11995438

Test details: Plasma protein binding by equilibrium dialysis, mouse plasma
Type: in vitro ADME
Test conditions: mouse, plasma

# Compound, fraction unbound at 6 h, 2 µM
measured = [
    ("NC(=O)N1c2ccccc2C=Cc2ccccc21 [Car, carbamazepine, reference compound]", 0.36),
]

###

We begin with a simple list: items and their reported inhibition at 10 µM.
System under test: CYP1A2 (Homo sapiens, UniProt P05177)
Sequence (P05177 whole entry): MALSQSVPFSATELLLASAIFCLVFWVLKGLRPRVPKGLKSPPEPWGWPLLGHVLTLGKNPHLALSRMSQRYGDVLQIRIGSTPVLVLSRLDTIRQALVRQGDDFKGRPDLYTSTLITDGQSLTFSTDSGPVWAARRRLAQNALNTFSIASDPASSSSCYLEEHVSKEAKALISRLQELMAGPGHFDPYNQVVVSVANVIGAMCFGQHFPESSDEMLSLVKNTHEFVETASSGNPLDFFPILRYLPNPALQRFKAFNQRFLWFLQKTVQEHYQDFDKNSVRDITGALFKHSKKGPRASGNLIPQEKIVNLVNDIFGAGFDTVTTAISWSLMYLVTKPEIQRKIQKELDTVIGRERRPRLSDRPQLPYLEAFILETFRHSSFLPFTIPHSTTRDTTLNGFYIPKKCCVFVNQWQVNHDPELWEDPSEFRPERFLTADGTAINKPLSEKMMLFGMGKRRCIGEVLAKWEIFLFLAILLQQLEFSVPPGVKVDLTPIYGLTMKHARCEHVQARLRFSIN
Test details: P450 inhibition in human hepatic microsomes, CYP1A2
Assay type: in vitro ADME
Test conditions: human, liver microsomes

# Compound, inhibition at 10 µM
records = [
    ("Nc1ccc(S(=O)(=O)Nc2ccnn2-c2ccccc2)cc1 [Sul, sulfaphenazole, reference compound]", "< 10%"),
    ("C=C[C@H]1C[N@@]2CC[C@H]1C[C@@H]2[C@@H](O)c1ccnc2ccc(OC)cc12 [Qui, quinidine]", "< 10%"),
]

###

System under test: human MDR1/P-gp (Homo sapiens)
Test details: MDCK-MDR1 permeability assay
Test conditions: dog, MDCK-MDR1, pH 7.4
Outcome measure: efflux ratio at 90 min, 2 µM

# Compound, System under test, Numeric result
records = [
    ("CC(C)(C)NCC(O)COc1cccc2c1CC(O)C(O)C2 (stereo not shown) [Nad, nadolol]", "human MDR1/P-gp (Homo sapiens)", 0.8),
]

###

Test details: Hepatic microsomal stability, human
Type: in vitro ADME
Test conditions: liver microsomes, pH 7.4

# Structure smiles string, half-life at 1 µM / min
rows = [
    ("CCN(CC)CCNC(=O)c1c(C)[nH]c(/C=C2\\C(=O)Nc3ccc(F)cc32)c1C", 34.5),
]

###

System under test: UniProtKB P11712
Test details: P450 inhibition in human hepatic microsomes, CYP2C9
Format: in vitro ADME
Test conditions: human, liver microsomes, probe tolbutamide, hydroxylation to hydroxytolbutamide

# Structure smiles string, inhibition at 40 µM
measured = [
    ("Cc1nc2c([nH]1)c(=O)n(C)c(=O)n2Cc1ccco1", "< 10%"),
]

###

System under test: CYP3A4 (Homo sapiens)
Sequence (P08684 whole entry): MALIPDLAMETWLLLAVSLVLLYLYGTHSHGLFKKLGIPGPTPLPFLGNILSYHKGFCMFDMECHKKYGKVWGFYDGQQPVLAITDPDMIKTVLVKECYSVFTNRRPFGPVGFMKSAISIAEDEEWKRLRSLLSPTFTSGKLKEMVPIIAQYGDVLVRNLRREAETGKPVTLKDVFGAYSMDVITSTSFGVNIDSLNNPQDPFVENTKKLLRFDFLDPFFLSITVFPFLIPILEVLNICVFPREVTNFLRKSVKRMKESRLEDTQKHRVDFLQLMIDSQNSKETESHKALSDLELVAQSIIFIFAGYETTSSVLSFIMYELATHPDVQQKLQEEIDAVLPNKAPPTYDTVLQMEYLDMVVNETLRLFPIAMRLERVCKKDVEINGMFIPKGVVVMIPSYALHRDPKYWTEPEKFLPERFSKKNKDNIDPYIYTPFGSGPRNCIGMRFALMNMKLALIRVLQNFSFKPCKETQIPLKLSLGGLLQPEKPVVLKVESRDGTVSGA
Test details: in vitro
Test conditions: microsomes

# Structure smiles string, System under test, inhibition at 40 µM
data = [
    ("Cc1nc2c([nH]1)c(=O)n(C)c(=O)n2Cc1ccco1", "CYP3A4 (Homo sapiens)", "< 10%"),
]

###

System under test: CYP1A2 (Homo sapiens)
Test details: P450 inhibition in human hepatic microsomes, CYP1A2
Assay type: in vitro ADME
Test conditions: human, microsomes
Outcome measure: inhibition at 40 µM (%)

# Compound, Numeric result
data = [
    ("Cc1nc2c([nH]1)c(=O)n(C)c(=O)n2Cc1ccco1 [Fur, furafylline]", 82),
]

###

Test details: PAMPA permeability
Format: in vitro ADME
Test conditions: PAMPA, pH 7.4
Outcome measure: Papp at 5 h, 5 µM (×10⁻⁶ cm/s)

# Compound, Unit, Numeric result
records = [
    ("CC(C)NCC(O)COc1cccc2ccccc12 (stereo not shown) [Pro, propranolol, reference compound]", "×10⁻⁶ cm/s", 5.7),
]

###

System under test: human MDR1/P-gp (Homo sapiens, UniProt P08183)
Sequence (P08183 whole entry): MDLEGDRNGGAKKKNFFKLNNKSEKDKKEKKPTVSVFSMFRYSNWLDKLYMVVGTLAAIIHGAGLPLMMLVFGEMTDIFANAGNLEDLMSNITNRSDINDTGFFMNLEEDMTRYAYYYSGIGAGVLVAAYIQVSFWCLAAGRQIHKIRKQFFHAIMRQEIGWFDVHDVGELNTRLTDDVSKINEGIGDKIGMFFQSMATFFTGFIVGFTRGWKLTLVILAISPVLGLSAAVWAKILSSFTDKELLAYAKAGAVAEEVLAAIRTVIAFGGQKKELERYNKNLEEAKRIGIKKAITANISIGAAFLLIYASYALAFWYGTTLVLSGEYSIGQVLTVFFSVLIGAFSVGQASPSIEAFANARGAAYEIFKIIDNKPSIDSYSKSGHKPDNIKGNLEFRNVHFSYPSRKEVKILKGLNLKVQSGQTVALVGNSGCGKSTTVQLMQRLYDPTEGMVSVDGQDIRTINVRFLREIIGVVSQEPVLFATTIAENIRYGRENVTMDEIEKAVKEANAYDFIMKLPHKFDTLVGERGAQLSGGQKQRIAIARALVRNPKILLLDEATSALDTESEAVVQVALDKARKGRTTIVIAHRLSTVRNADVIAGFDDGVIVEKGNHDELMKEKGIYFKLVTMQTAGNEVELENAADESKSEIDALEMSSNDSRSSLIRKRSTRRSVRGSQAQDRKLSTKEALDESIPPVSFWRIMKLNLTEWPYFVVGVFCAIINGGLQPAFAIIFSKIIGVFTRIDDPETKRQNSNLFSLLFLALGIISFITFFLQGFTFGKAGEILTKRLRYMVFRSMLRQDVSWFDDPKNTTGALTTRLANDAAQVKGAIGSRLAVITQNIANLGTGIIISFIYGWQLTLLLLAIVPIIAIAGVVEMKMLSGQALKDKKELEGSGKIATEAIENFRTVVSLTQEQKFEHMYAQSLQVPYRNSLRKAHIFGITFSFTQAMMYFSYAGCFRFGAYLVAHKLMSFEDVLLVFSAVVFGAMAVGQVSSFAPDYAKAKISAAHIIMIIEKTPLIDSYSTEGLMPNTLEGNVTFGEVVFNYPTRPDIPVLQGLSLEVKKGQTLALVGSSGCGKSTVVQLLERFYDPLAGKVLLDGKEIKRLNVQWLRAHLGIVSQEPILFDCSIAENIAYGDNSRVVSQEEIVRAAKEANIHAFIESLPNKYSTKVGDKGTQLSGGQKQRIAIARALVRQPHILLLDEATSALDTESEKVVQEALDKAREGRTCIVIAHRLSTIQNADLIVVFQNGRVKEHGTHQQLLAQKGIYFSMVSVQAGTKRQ
Test details: MDCK-MDR1 permeability assay
Test conditions: dog, MDCK-MDR1, pH 7.4

# Compound, Papp A→B at 90 min, 2 µM / nm/s
records = [
    ("C=C[C@H]1C[N@@]2CC[C@H]1C[C@@H]2[C@@H](O)c1ccnc2ccc(OC)cc12 [Qui, quinidine]", 16),
    ("CC(C)(C)NCC(O)COc1cccc2c1CC(O)C(O)C2 (centres unmarked) [Nad, nadolol]", 19),
]

###

System under test: CYP2C9 (Homo sapiens)
Sequence (P11712 whole entry): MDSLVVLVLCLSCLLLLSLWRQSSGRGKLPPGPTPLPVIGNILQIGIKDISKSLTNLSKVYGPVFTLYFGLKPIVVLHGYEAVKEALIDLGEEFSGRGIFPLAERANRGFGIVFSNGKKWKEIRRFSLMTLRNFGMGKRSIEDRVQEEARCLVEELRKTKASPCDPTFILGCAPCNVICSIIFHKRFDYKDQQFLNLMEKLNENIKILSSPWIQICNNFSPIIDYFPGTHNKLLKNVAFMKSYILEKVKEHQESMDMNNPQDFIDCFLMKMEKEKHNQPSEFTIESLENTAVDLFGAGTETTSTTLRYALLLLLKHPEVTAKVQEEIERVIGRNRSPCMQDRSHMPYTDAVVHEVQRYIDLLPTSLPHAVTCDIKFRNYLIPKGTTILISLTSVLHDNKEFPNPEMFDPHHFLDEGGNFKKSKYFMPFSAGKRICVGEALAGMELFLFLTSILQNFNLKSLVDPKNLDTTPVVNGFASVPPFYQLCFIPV
Test details: P450 inhibition in human hepatic microsomes, CYP2C9
Format: in vitro ADME
Test conditions: human, liver microsomes, probe tolbutamide, hydroxylation to hydroxytolbutamide

# Compound, inhibition at 1 µM / %
measured = [
    ("CC(=O)N1CCN(c2ccc(OCC3COC(Cn4ccnc4)(c4ccc(Cl)cc4Cl)O3)cc2)CC1 (stereo not shown)", 39),
]
